Values were extracted from ChEMBL document CHEMBL2158000.

system.under.test: Amine oxidase [flavin-containing] B (Homo sapiens)
Sequence (P27338 whole entry): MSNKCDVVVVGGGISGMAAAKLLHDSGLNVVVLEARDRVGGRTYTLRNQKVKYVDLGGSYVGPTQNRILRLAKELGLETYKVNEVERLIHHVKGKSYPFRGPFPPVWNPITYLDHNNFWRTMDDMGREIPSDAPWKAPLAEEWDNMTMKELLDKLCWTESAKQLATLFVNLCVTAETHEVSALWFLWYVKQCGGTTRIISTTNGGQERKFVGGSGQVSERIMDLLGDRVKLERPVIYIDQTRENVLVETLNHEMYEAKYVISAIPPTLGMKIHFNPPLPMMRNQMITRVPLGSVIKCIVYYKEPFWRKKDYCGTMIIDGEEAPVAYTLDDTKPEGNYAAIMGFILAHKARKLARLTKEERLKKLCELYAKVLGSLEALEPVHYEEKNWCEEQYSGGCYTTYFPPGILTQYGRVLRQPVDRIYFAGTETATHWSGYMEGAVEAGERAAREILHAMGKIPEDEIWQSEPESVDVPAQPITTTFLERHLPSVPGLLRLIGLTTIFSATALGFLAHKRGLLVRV
method.summary: Inhibition of human recombinant MAOB using kynuramine as substrate assessed as formation of 4-hydroxyquinoline after 20 mins by fluorescence spectrophotometry
Assignment: determine reported log10(IC50) for the given compounds.
# log10 transformed; quantity=IC50; unit=µM

## Input Param item = COc1ccc(CSc2ccc3c(c2)C(=O)NC3=O)cc1 ; retrieve measured log10(IC50).
## Output -1.70

## Input Param item = O=C1NC(=O)c2cc(SC3CCCCC3)ccc21 ; retrieve measured log10(IC50).
## Output -0.75

## Input Param item = O=C1NC(=O)c2cc(SCc3ccc(Br)cc3)ccc21 ; retrieve measured log10(IC50).
## Output -2.13

## Input Param item = CC(C)CCSc1ccc2c(c1)C(=O)NC2=O ; retrieve measured log10(IC50).
## Output -1.82

## Input Param item = O=C1NC(=O)c2cc(SCCc3ccccc3)ccc21 ; retrieve measured log10(IC50).
## Output -1.52

## Input Param item = O=C1NC(=O)c2cc(Sc3ccccc3)ccc21 ; retrieve measured log10(IC50).
## Output -0.01

## Input Param item = O=C1NC(=O)c2cc(Sc3ccc(Cl)cc3)ccc21 ; retrieve measured log10(IC50).
## Output -0.34
